tested.target: F22-4 antibody
assay.summary: ITC microcalorimetry
Assay type: binding, murine
study.conditions: PBS buffer at 25°C; read-out: KD
Hi! Could you tag entries with Kd below 5 µM as yes, and those at or above as no? Much appreciated.

Ask | Field: below-cutoff. Rule: recorded Kd strictly less than 5 µM. Subject: COC1OC(C)C(OC2OC(CO)C(O)C(O)C2O)C(OC2OC(C)C(O)C(O)C2OC2OC(C)C(O)C(O)C2OC2OC(CO)C(O)C(OC3OC(C)C(OC4OC(CO)C(O)C(O)C4O)C(OC4OC(C)C(O)C(O)C4OC4OC(C)C(O)C(O)C4OC4OC(CO)C(O)C(O)C4NC(C)=O)C3O)C2NC(C)=O)C1O (centres unmarked) [DAB(E)CDAB(E)C]
Reply | no

Ask | Field: below-cutoff. Rule: recorded Kd strictly less than 5 µM. Subject: CO[C@@H]1O[C@@H](C)[C@H](O)[C@@H](O)[C@H]1O[C@@H]1O[C@H](CO)[C@@H](O)[C@H](O[C@@H]2O[C@@H](C)[C@H](O[C@H]3O[C@H](CO)[C@@H](O)[C@H](O)[C@H]3O)[C@@H](O[C@@H]3O[C@@H](C)[C@H](O)[C@@H](O)[C@H]3O)[C@H]2O)[C@H]1NC(C)=O [B(E)CDA]
Reply | yes

Ask | Field: below-cutoff. Rule: recorded Kd strictly less than 5 µM. Subject: CO[C@@H]1O[C@@H](C)[C@H](O)[C@@H](O)[C@H]1O[C@@H]1O[C@@H](C)[C@H](O)[C@@H](O)[C@H]1O[C@@H]1O[C@H](CO)[C@@H](O)[C@H](O[C@@H]2O[C@@H](C)[C@H](O[C@H]3O[C@H](CO)[C@@H](O)[C@H](O)[C@H]3O)[C@@H](O)[C@H]2O)[C@H]1NC(C)=O [ECDAB]
Reply | no

Ask | Field: below-cutoff. Rule: recorded Kd strictly less than 5 µM. Subject: COC1OC(C)C(O)C(O)C1OC1OC(CO)C(O)C(OC2OC(C)C(OC3OC(CO)C(O)C(O)C3O)C(O)C2O)C1NC(C)=O (centres unmarked) [ECDA]
Reply | no

Ask | Field: below-cutoff. Rule: recorded Kd strictly less than 5 µM. Subject: COC1OC(C)C(OC2OC(CO)C(O)C(O)C2O)C(OC2OC(C)C(O)C(O)C2OC2OC(C)C(O)C(O)C2OC2OC(CO)C(O)C(OC3OC(C)C(OC4OC(CO)C(O)C(O)C4O)C(OC4OC(C)C(O)C(O)C4O)C3O)C2NC(C)=O)C1O (centres unmarked) [B(E)CDAB(E)C]
Reply | yes
